assay_remarks: SK-BR-3 cell growth inhibitors, pilot screen, 24 h, human (AID 572);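 also: compound exposure lasted between 18 and 24 h rather than exactly 24 h; 100% = carrier-treated control wells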
particulars: SK-BR-3 viability, CellTiter-Glo luminescence, at 10 µM, hits give low values
Measured viability accompanies every entry in the list below.
Please reply with the bare figure in % and do not write the unit itself.

Example results:
molecule	viability [%]
CN(Cc1cccs1)c1ncnc2sccc12	112
COc1ccc(C2C(C#N)=C(N)OC3=C2C(=O)CC(C)C3)c(OC)c1OC (centres undefined)	102

**Q:** GET /values?readout=viability&item= CCC(C)OC(=O)n1ccc(C(=O)Nc2nccs2)n1 (centres undefined)
**A:** 106

**Q:** GET /values?readout=viability&item= `COCCn1c(SCC(=O)Nc2cccc(OC)c2)nnc1-c1ccccc1`
**A:** 101

**Q:** GET /values?readout=viability&item= COc1ccc(NC(=O)C(C)Oc2ccc(/C(C)=N\O)cc2)cc1 (centres undefined)
**A:** 122

**Q:** GET /values?readout=viability&item= `COC(=O)c1ccc(NC(=O)Cn2nnc3ccccc32)cc1`
**A:** 94

**Q:** GET /values?readout=viability&item= `Cc1nc2ccc(N3C(=O)CCC3=O)cc2[nH]1`
**A:** 100

**Q:** GET /values?readout=viability&item= `COc1cc(NC(=O)Cc2nn(C)c(=O)c3ccccc23)cc(OC)c1`
**A:** 87.5

**Q:** GET /values?readout=viability&item= `COC(=O)CCCCCNc1ccc(C(=O)OC)cc1N`
**A:** 107

**Q:** GET /values?readout=viability&item= `O=c1oc2ccccc2n1CCc1ccccc1`
**A:** 109

**Q:** GET /values?readout=viability&item= CCOc1ccc(C2CC(c3cccc(C)c3)n3ncnc3N2)cc1 (centres undefined)
**A:** 101

**Q:** GET /values?readout=viability&item= `Cn1c(/C(C#N)=C/Nc2ccccn2)nc2ccccc21`
**A:** 75
